Study Target: UniProtKB P30556
Sequence (P30556 whole entry): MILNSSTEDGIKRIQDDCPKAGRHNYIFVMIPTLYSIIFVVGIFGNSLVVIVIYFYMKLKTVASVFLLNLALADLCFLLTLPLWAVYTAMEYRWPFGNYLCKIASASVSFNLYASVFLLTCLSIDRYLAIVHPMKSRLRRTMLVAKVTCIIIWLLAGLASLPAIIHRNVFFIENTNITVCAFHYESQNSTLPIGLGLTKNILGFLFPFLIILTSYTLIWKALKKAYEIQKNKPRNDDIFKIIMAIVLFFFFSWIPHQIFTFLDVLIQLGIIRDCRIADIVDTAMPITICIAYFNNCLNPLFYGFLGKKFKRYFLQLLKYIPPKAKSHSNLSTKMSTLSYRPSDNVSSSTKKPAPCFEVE
Method Summary: Compound was tested in vitro for inhibitory activity against human Angiotensin II receptor in cultured preadipocytes
Consider the following molecules; for each one, report its IC50.

What does the record list as IC50 for `Cc1nc(C(=O)O)nc2c1CCC(=O)N2Cc1ccc(-c2ccccc2-c2nnn[nH]2)cc1` ?
23 nM

What does the record list as IC50 for `Cc1nc(C(=O)O)c2c(n1)N(Cc1ccc(-c3ccccc3-c3nnn[nH]3)cc1)C(=O)CC2` ?
44 nM

What does the record list as IC50 for `Cc1nc(C)c2c(n1)N(Cc1ccc(-c3ccccc3-c3nnn[nH]3)cc1)C(=O)CC2` ?
38 nM

What does the record list as IC50 for `O=c1ccc2c(CO)nc(CO)nc2n1Cc1ccc(-c2ccccc2-c2nn[nH]n2)cc1` ?
44 nM
